B1: library; a variant is named by its letters at N, in order (parent)
chain: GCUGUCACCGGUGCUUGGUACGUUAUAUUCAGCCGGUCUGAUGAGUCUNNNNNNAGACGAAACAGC

Variants of: B1
assay-details: normalized RNA/DNA level without ligand (relative to sTRSVctl = 100) (log10 (% of sTRSVctl)); HEK293T overexpressing SLC46A1; higher = less ribozyme self-cleavage, higher mRNA level
condition-parameters: without (6R,S)-folinic acid; ligand present: no
Tick 1 (yes) if normalized RNA/DNA level without ligand (log10) is 2 or greater. Tick 0 (no) if normalized RNA/DNA level without ligand (log10) is less than 2.

Use these answered entries as a reference point.
> print(dat)
   mutant.id  answer.label
1     UUCCCC       1 (yes)
2     AUUGCG        0 (no)
3     CUUCGG       1 (yes)
4     GAAGUG        0 (no)

From here, focus on the item given below.
Q: I'd appreciate it if you could say whether CGCGCU has normalized RNA/DNA level without ligand (log10) at least equal to 2.
Ans: 1 (yes)
